# Test system: FM-MEL-6
# experimental-protocol: drug sensitivity score (DSS) (DSS (unitless, 0-50 scale)); higher = more sensitive (stronger viability inhibition); extreme values may be limits of the assay
# condition-set: 72 h; culture: 2D
Here the recorded drug sensitivity score is given for each entry.

{"compound-string": "Cc1sc2c(c1C)C(c1ccc(Cl)cc1)=N[C@@H](CC(=O)Nc1ccc(O)cc1)c1nnc(C)n1-2", "drug sensitivity score": 6.7}
{"compound-string": "CCNCCS(=O)(=O)NC[C@@]1(c2ccccc2)SC(NC(=O)C(C)(C)C)=NN1C(=O)C(C)(C)C", "drug sensitivity score": 10.2}
{"compound-string": "Nc1ncn([C@H]2C[C@H](O)[C@@H](CO)O2)c(=O)n1", "drug sensitivity score": 3.4}
{"compound-string": "CC(C)c1c(C(=O)Nc2ccccc2)c(-c2ccccc2)c(-c2ccc(F)cc2)n1CC[C@@H](O)C[C@@H](O)CC(=O)O", "drug sensitivity score": 0}
{"compound-string": "Cc1cccc(-c2nn3c(c2-c2ccnc4ccc(C(N)=O)cc24)CCC3)n1", "drug sensitivity score": 0}
{"compound-string": "C[C@@H]1CN(C(=O)c2ccc(NC(=O)c3cc(O[C@H](C)c4c(Cl)ccc(F)c4Cl)c(N)nn3)cc2)C[C@H](C)N1", "drug sensitivity score": 1.5}
{"compound-string": "Cc1cc(Nc2nc(N[C@@H](C)c3ncc(F)cn3)ncc2Cl)[nH]n1", "drug sensitivity score": 0}

* * *

Listing: drug sensitivity score of selected compounds
# Test system: FM-MEL-2
# experimental-protocol: drug sensitivity score (DSS) (DSS (unitless)); higher = more sensitive
# condition-set: 72 h; culture: 3D spheroid

{"compound-string": "CNc1ncc2cc(-c3cc(NC(=O)NCCC(C)(C)C)c(F)cc3C)c(C)nc2n1", "drug sensitivity score": 20.8}
{"compound-string": "C=CCn1c(=O)c2cnc(Nc3ccc(N4CCN(C)CC4)cc3)nc2n1-c1cccc(C(C)(C)O)n1", "drug sensitivity score": 4.5}
{"compound-string": "COc1ncc(-c2ccc3nccc(-c4ccnnc4)c3c2)cc1NS(=O)(=O)c1ccc(F)cc1F", "drug sensitivity score": 17.5}
{"compound-string": "CC(C)(C)c1cc(NC(=O)Nc2ccc(-c3cn4c(n3)sc3cc(OCCN5CCOCC5)ccc34)cc2)no1", "drug sensitivity score": 14.5}
{"compound-string": "Cc1cn(-c2cc(NC(=O)c3ccc(C)c(Nc4nccc(-c5cccnc5)n4)c3)cc(C(F)(F)F)c2)cn1", "drug sensitivity score": 16.7}
{"compound-string": "Cn1cnc2c(F)c(Nc3ccc(Br)cc3F)c(C(=O)NOCCO)cc21", "drug sensitivity score": 12.9}
{"compound-string": "COc1cc(OC)c(/C=C/S(=O)(=O)Cc2ccc(OC)c(NCC(=O)O)c2)c(OC)c1", "drug sensitivity score": 10.5}
{"compound-string": "CC(C)Nc1cc(-c2c[nH]c(C(=O)N[C@H](CO)c3cccc(Cl)c3)c2)c(Cl)cn1", "drug sensitivity score": 19.4}

* * *

# System: FM-MEL-6
# experimental-protocol: drug sensitivity score (DSS) (DSS (unitless, 0-50 scale)); higher = more sensitive (stronger viability inhibition); extreme values may be limits of the assay
# condition-set: 72 h; culture: 2D

{"molecule": "O=C(NC1CCNCC1)c1n[nH]cc1NC(=O)c1c(Cl)cccc1Cl [AT7519]", "drug sensitivity score": 19.3}
{"molecule": "CC(C)C[C@H](NC(=O)[C@H](Cc1ccccc1)NC(=O)c1cnccn1)B(O)O [Bortezomib]", "drug sensitivity score": 29}
{"molecule": "Cc1cn(-c2cc(NC(=O)c3ccc(C)c(Nc4nccc(-c5cccnc5)n4)c3)cc(C(F)(F)F)c2)cn1 [Nilotinib]", "drug sensitivity score": 2.1}
{"molecule": "Cc1cc(Nc2cc(CN3CCOCC3)c3nc(C)c(Cc4ccc(Cl)cc4F)n3n2)n[nH]1 [Gandotinib]", "drug sensitivity score": 2.2}
{"molecule": "Cc1[nH]c2ccccc2c1CCNCc1ccc(/C=C/C(=O)NO)cc1 [Panobinostat]", "drug sensitivity score": 12.1}
{"molecule": "CC(C)[C@H]1C(=O)N[C@@H](CCCNC(=N)N)C(=O)NCC(=O)N[C@@H](CC(=O)O)C(=O)N[C@H](Cc2ccccc2)C(=O)N1C [Cilengitide]", "drug sensitivity score": 1}
{"molecule": "OC[C@H]1O[C@@H](n2cnc3c2N=CNC[C@H]3O)C[C@@H]1O [Pentostatin]", "drug sensitivity score": 0}
{"molecule": "Nc1ncnc2c1nc(N)n2[C@@H]1O[C@H](CO)[C@@H](O)[C@H]1O [8-amino-adenosine]", "drug sensitivity score": 20.5}
{"molecule": "CC[C@@]1(O)C(=O)OCc2c1cc1n(c2=O)Cc2cc3c(CN(C)C)c(O)ccc3nc2-1 [Topotecan]", "drug sensitivity score": 8.1}
{"molecule": "Cc1ccc(NC(=O)c2ccc(CN3CCN(C)CC3)cc2)cc1Nc1nccc(-c2cccnc2)n1 [Imatinib]", "drug sensitivity score": 0}
{"molecule": "Cn1nnc2c(C(N)=O)ncn2c1=O [Temozolomide]", "drug sensitivity score": 0}
{"molecule": "CCc1c2c(nc3ccc(O)cc13)-c1cc3c(c(=O)n1C2)COC(=O)[C@]3(O)CC [SN-38]", "drug sensitivity score": 19.7}
{"molecule": "CC(C)N(CCCNC(=O)Nc1ccc(C(C)(C)C)cc1)C[C@H]1O[C@@H](n2cc(Br)c3c(N)ncnc32)[C@H](O)[C@@H]1O [SGC0946]", "drug sensitivity score": 0.8}
{"molecule": "COC(=O)c1ccc2c(c1)[nH]c1ncnc(NCCCN3CCCCC3)c12 [UM729]", "drug sensitivity score": 0}
{"molecule": "N#CC[C@H](C1CCCC1)n1cc(-c2ncnc3[nH]ccc23)cn1 [Ruxolitinib]", "drug sensitivity score": 0}
{"molecule": "CCN(CC)CCCC(C)Nc1ccnc2cc(Cl)ccc12 (stereo not drawn) [Chloroquine]", "drug sensitivity score": 9.4}
{"molecule": "CNC(=O)c1cccc(-c2ccc3c(N4CCOC[C@@H]4C)nc(N4CCOC[C@@H]4C)nc3n2)c1 [Vistusertib]", "drug sensitivity score": 12.6}
{"molecule": "CN1CCN(C2CCC(n3cc(-c4ccc(Oc5ccccc5)cc4)c4c(N)ncnc43)CC2)CC1 (stereo not drawn)", "drug sensitivity score": 7.2}
